// reported IC50 for each item listed
Molecular target: T1, Bcl-w
T1 chain: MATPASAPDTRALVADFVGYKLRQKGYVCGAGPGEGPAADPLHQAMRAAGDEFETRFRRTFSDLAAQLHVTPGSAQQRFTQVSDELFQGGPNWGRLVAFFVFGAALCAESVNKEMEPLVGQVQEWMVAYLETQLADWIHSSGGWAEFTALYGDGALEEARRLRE
Assay: competition phage ELISA
Supply the numeric figure in nM, leaving out any unit text.

// known answers, use as guide
>  <BINDER>
QEDIIRNIAAHLAQVGDSMDRSIPPG (M13 phage display: FLAG-26mer-GGGT-g3(249-406)) [Bid BH3 R10A, phage-displayed]

>  <MEASURED RESULT>
46

$$$$
>  <BINDER>
QADIIRNIARHLAQVGDSMDRSIPPG (M13 phage display: FLAG-26mer-GGGT-g3(249-406)) [Bid BH3 E2A, phage-displayed]

>  <MEASURED RESULT>
34

$$$$
>  <BINDER>
QEDIIRNIARHLAQVGDAMDRSIPPG (M13 phage display: FLAG-26mer-GGGT-g3(249-406)) [Bid BH3 S18A, phage-displayed]

>  <MEASURED RESULT>
31

$$$$
>  <BINDER>
QEDIIRNIARHLAQVGDSMDRSIPAG (M13 phage display: FLAG-26mer-GGGT-g3(249-406)) [Bid BH3 P25A, phage-displayed]

>  <MEASURED RESULT>
26

$$$$
>  <BINDER>
QEDIIRNIARHLAQVGDSMDRSAPPG (M13 phage display: FLAG-26mer-GGGT-g3(249-406)) [Bid BH3 I23A, phage-displayed]

>  <MEASURED RESULT>
18

$$$$

Can you share its IC50? I mean this binder: QEDIIRNIARHLAAVGDSMDRSIPPG (M13 phage display: FLAG-26mer-GGGT-g3(249-406)) [Bid BH3 Q14A, phage-displayed] 25

Which value of IC50 has been reported for QEDIARNIARHLAQVGDSMDRSIPPG (M13 phage display: FLAG-26mer-GGGT-g3(249-406)) [Bid BH3 I5A, phage-displayed] in the records? 34
